target: human CB1 receptor (Homo sapiens, UniProt P21554); experiment: Competitive radioligand; format: binding; conditions: read-out: % displacement at 10 μM CB1
Sequence (P21554 whole entry): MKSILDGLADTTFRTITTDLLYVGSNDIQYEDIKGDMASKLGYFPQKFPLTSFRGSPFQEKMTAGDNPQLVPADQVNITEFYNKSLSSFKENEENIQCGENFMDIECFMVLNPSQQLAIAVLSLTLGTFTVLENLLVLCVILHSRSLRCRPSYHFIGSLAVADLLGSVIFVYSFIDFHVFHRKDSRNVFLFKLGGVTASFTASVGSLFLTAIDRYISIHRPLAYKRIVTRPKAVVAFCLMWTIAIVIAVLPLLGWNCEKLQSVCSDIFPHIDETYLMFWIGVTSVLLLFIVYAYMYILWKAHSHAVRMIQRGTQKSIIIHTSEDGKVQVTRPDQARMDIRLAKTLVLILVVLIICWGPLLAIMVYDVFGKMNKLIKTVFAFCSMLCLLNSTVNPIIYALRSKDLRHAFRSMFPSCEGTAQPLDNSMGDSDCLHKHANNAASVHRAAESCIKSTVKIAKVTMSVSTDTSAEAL
Where inhibition at 10 µM equals or exceeds 30%, the correct label is class 1; where it does not, the label is class 0.

-- ask Does the molecule C[C@H]1CC[C@H]2[C@H](C1)c1c(O)cc(-c3csc4ccccc34)cc1OC2(C)C [11J] have recorded inhibition at 10 µM that is 30% or more?
-- reply class 1

-- ask Does the molecule C[C@H]1CC[C@H]2[C@H](C1)c1c(O)cc(/C=C/c3ccc(Cl)cc3)cc1OC2(C)C [11G] have recorded inhibition at 10 µM that is 30% or more?
-- reply class 0

-- ask Does the molecule C[C@H]1CC[C@H]2[C@H](C1)c1c(O)cc(-c3cc(C(F)(F)F)cc(C(F)(F)F)c3)cc1OC2(C)C [11K] have recorded inhibition at 10 µM that is 30% or more?
-- reply class 0

-- ask Does the molecule CCCCCC/C=C/c1cc(O)c2c(c1)OC(C)(C)[C@H]1CC[C@H](C)C[C@H]21 [11E] have recorded inhibition at 10 µM that is 30% or more?
-- reply class 1

-- ask Does the molecule C[C@H]1CC[C@H]2[C@H](C1)c1c(O)cc(-c3ccoc3)cc1OC2(C)C [11D] have recorded inhibition at 10 µM that is 30% or more?
-- reply class 1

-- ask Does the molecule C[C@H]1CC[C@H]2[C@H](C1)c1c(O)cc(-c3ccccc3)cc1OC2(C)C [11A] have recorded inhibition at 10 µM that is 30% or more?
-- reply class 1

-- ask Does the molecule C[C@H]1CC[C@H]2[C@H](C1)c1c(O)cc(/C=C/c3ccc(C(F)(F)F)cc3)cc1OC2(C)C [11F] have recorded inhibition at 10 µM that is 30% or more?
-- reply class 1

-- ask Does the molecule C[C@H]1CC[C@H]2[C@H](C1)c1c(O)cc(-c3ccc(Oc4ccccc4)cc3)cc1OC2(C)C [11I] have recorded inhibition at 10 µM that is 30% or more?
-- reply class 1

-- ask Does the molecule C[C@H]1CC[C@H]2[C@H](C1)c1c(O)cc(-c3ccc(C#N)cc3)cc1OC2(C)C [11C] have recorded inhibition at 10 µM that is 30% or more?
-- reply class 0

====

target: UniProt P34972; assay: Competitive radioligand; format: binding; conditions: read-out: % displacement at 10 μM CB2
Sequence (P34972 whole entry): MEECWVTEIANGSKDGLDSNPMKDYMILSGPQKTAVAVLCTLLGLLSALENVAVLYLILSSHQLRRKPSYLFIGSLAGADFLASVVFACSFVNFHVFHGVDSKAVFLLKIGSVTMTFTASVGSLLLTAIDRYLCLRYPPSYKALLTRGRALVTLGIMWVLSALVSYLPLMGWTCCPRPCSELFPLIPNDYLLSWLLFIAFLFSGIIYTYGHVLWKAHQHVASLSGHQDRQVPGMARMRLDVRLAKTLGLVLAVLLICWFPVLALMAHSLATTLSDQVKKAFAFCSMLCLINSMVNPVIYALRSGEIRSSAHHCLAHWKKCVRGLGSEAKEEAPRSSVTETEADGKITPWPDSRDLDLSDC
measureName: inhibition at 10 µM (%)
# unit: % | format: bare number

-- ask Output inhibition at 10 µM of C[C@H]1CC[C@H]2[C@H](C1)c1c(O)cc(-c3cccc4c3oc3ccccc34)cc1OC2(C)C [11H]
-- reply 76.2

-- ask Output inhibition at 10 µM of C[C@H]1CC[C@H]2[C@H](C1)c1c(O)cc(-c3csc4ccccc34)cc1OC2(C)C [11J]
-- reply 70.4

-- ask Output inhibition at 10 µM of C[C@H]1CC[C@H]2[C@H](C1)c1c(O)cc(-c3ccoc3)cc1OC2(C)C [11D]
-- reply 44.4
